# SYSTEM_NAME: human MGL from HeLa cells (Homo sapiens, UniProt Q99685)
# Construct: combining endogenously expressed MGL from HeLa cells with test compounds; endogenous in cells; host or cells: HeLa cells / cell homogenates
# Sequence (Q99685 whole entry): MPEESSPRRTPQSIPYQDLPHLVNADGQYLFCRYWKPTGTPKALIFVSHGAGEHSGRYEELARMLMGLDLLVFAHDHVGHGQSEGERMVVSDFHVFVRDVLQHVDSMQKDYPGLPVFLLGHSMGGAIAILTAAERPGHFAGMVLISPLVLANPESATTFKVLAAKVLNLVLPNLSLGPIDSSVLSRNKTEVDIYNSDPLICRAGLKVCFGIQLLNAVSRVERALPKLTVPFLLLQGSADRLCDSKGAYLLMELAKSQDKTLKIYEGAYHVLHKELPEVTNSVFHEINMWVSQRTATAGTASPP
# MEASUREMENT_NOTES: In vitro MGL activity assay: [glycerol-1,3-3H]-oleyl glycerol cleavage by MGL from HeLa cells
# Format: biochemical
# SETUP_CONDITIONS: 300 nM [Glycerol-1,3-3H]-oleyl glycerol, one hour incubation
pIC50: −log10 of the molar value.
MEASUREMENT_LABEL: pIC50

Consider the reported pIC50 for these molecules:
C[C@H]1c2nn(C)c(-c3cc(F)c(F)c(F)c3)c2CCN1C(=O)c1ccn2nccc2c1 | 7.32
Cn1nc2c(c1-c1ccccc1)CCN(C(=O)c1cnc3ccccc3c1)C2 | 6.01
CC1c2nn(C)c(-c3ccccc3)c2CCN1C(=O)c1ccc2ncccc2c1 (racemic) | 7.70
Cc1cc(C(=O)N2CCc3c(nn(C)c3-c3cc(F)c(F)c(F)c3)[C@@H]2C)c2cccc(F)c2n1 | 8.18
Cn1nc2c(c1-c1ccccc1)CCN(C(=O)c1cccc3ncnn13)C2 | 5.15
COc1ccc(C(=O)N2CCc3c(nn(C)c3-c3cc(C)cc(F)c3)[C@@H]2C)cc1 | 7.16
C[C@H]1c2nn(C)c(-c3cc(F)c(F)c(F)c3)c2CCN1C(=O)c1ccc(F)cc1-n1nccn1 | 6.51
C[C@H]1c2nn(C)c(-c3cc(F)c(F)c(F)c3)c2CCN1C(=O)c1ccc2nccnc2c1 | 7.65

[a] COc1cnc(C(=O)N2CCc3c(nn(C)c3-c3cc(F)c(F)c(F)c3)[C@@H]2C)cn1
[b] C[C@H]1c2nn(C)c(-c3cc(F)cc(F)c3)c2CCN1C(=O)c1ccc2nccnc2c1 (single isomer, unassigned)
Kindly identify which of a and b has the larger recorded pIC50 value. Returns: label corresponding to the selected item. b
(b: 8.15, a: 6.28)

The measurements presented in this section are drawn from patent US11820766B2.
